- SYSTEM_UNDER_TEST: UniProt Q6ZN17
- Sequence (Q6ZN17 110-174): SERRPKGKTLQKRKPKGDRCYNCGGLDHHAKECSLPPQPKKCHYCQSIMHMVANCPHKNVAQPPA
READOUT_NAME: Kd (µM)
Please give a number only; it is taken to be in µM.

Enquiry: Recall the reported Kd of O=c1cccc(-c2nc3cc(F)c(O)cc3c(=O)[nH]2)[nH]1 on UniProt Q6ZN17 and write it down.
Return: 60

====

- SYSTEM_UNDER_TEST: Lin28A ZKD (Homo sapiens)
- Construct: Lin28A ZKD (aa121-187); His-tag; made in house; host or cells: Escherichia coli BL21
- Sequence (Q9H9Z2 121-187): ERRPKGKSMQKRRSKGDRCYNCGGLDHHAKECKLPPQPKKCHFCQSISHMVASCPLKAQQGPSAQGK
- EXPERIMENT_NOTES: EMSA, Lin28A ZKD–Let-7 complex
- Assay type: binding
- DETAILS: compounds 100–1200 uM
Measured concentration that inhibits formation of Lin28A ZKD–Let-7 complex in EMSA accompanies every entry in the list below.

CCOc1cccc2c1N[C@@H](c1ccc(C(=O)O)cc1)[C@H]1CC=C[C@@H]21 [Li71, reference compound]; 100 to 400 µM
CCc1cc(=O)[nH]c(Nc2cc(Cl)ccc2O)n1 [Ln7]; > 1200 µM
O=c1cccc(-c2nc3cc(F)c(O)cc3c(=O)[nH]2)[nH]1 [Ln115]; 100 to 400 µM
O=c1[nH]c(Nc2ccccc2O)cs1 [Ln15]; 100 to 400 µM

Enquiry: Recall the reported concentration that inhibits formation of Lin28A ZKD–Let-7 complex in EMSA of CC(=O)N(C)c1cccc(-c2ccc3nnc(C)n3n2)c1 [compound 1632, reference compound] on Lin28A ZKD (Homo sapiens) and write it down.
Return: > 1200 µM
